From: PubChem BioAssay (EPA / NIEHS)

- experimental.details: BSK_3C_Proliferation: Cell Proliferation Assessment in the BioMAP Diversity Plus: 3C Assay (AID 2283006)
- measurement.setup: primary human endothelial cells (HUVEC)
Activity calls are given as the source filed them. How the source made its calls: active means hit-call score of the fitted dose curve at least 0.9, where 1 is the maximum; inactive means score below 0.9.
Outcomes: yes = active, no = inactive

compound=Nc1c(Oc2ccccc2)cc(O)c2c1C(=O)c1ccccc1C2=O class_label=no
compound=O=C(CCl)NCO class_label=no
compound="CC(C)=CC1C(C(=O)OCc2cccc(Oc3ccccc3)c2)C1(C)C (centres undefined)" class_label=yes
compound=NC(=O)CCl class_label=no
compound="O=c1oc2ccccc2c(O)c1C(CC(O)c1ccc(-c2ccc(Br)cc2)cc1)c1ccccc1 (centres undefined)" class_label=yes
compound=Oc1ccc(Cc2ccc(O)cc2)cc1 class_label=no
compound="CCC(C)(C#N)N=NC(C)(C#N)CC (centres undefined)" class_label=no
compound=CCOP(=S)(OCC)OP(=S)(OCC)OCC class_label=yes
compound=CCOC(=O)CC(=O)CCl class_label=yes
